System: RXF 631
Method Description: NCI tumour cell line growth inhibition, 48 h
Active and inactive are the calls of the source. Rule as the data show it: active = GI50 up to about 1.1 µM and inactive = higher.

Molecule: Cc1noc2cccc(OCc3ccccc3)c12
GI50: 85.7 µM (inactive)
--
Molecule: COc1cc(/C=C/c2ccc(OC)c(OC)c2OC)cc(OC)c1OC
GI50: 20 µM (inactive)
--
Molecule: O=C1C2Cc3ccccc3CN2C(=O)N1CCN1CCOCC1 (stereo not drawn)
GI50: > 100 µM (inactive)

----------
Test system: MOLT-4
Method Description: NCI tumour cell line growth inhibition, 48 h
Calls of active or inactive are those of the source. Rule as the data show it: active = GI50 up to about 1.1 µM and inactive = higher.
Reported values of GI50 for individual entries
Result Type: GI50

Compound: Oc1cc2c3c(c1)c1cc4c(cc1c[n+]3CC2)OCO4
Result Type: GI50
Test Value: 0.242 µM (active)
//
Compound: S=C(N/N=C/c1ccco1)NC12CC3CC(CC(C3)C1)C2
Result Type: GI50
Test Value: 39.4 µM (inactive)
//
Compound: O=C(c1ccccc1)c1oc2ccc(Br)cc2c1-c1cnn(-c2ccccc2)c1
Result Type: GI50
Test Value: > 100 µM (inactive)
//
Compound: Cc1ccc(C(=O)/C=C/c2cccc([N+](=O)[O-])c2)cc1
Result Type: GI50
Test Value: 4.7 µM (inactive)
//
Compound: O=C(O)CCC(c1ccccc1)(c1ccccc1)c1ccccc1
Result Type: GI50
Test Value: 33.9 µM (inactive)
//
Compound: C=CC1(c2ccc(-c3ccccc3)cc2)OCCO1
Result Type: GI50
Test Value: 40.6 µM (inactive)
//
Compound: CCC(/C=C/c1ccccc1)=N\N=C(\C=C\c1ccccc1)CC
Result Type: GI50
Test Value: > 100 µM (inactive)
//
Compound: Cc1cc(=O)cc2sc3cc(Cl)ccc3nc1-2
Result Type: GI50
Test Value: 12.6 µM (inactive)
//
Compound: O=C1c2ccccc2-c2cccc3ccc(Cc4ccccc4)c1c23
Result Type: GI50
Test Value: > 100 µM (inactive)
//
Compound: CC(C)C/C(CC(=O)CCC(=O)Nc1ccccc1[N+](=O)[O-])=N\NC(=O)c1cc2ccccc2cc1O
Result Type: GI50
Test Value: 20.2 µM (inactive)
//
Compound: Cc1cnc2cc(Cl)ccc2c1NCCN(CC(C)C)CC(C)C
Result Type: GI50
Test Value: > 100 µM (inactive)
//
Compound: COC(=O)C(CCCN1C(=O)c2ccccc2C1=O)C(=O)OC
Result Type: GI50
Test Value: > 100 µM (inactive)
//
Compound: CC12CC(c3ccccc3O1)C(C(=O)Nc1ccc(F)cc1)C(=O)N2 (configuration not stated)
Result Type: GI50
Test Value: 21.1 µM (inactive)
//
Compound: COc1cc(=O)oc(/C=C/C=C/C=C/C(C)=C\C2(C)OC(C)C(C)(O)C2O)c1C (configuration not stated)
Result Type: GI50
Test Value: > 100 µM (inactive)
//
Compound: COC(=O)NN=C(c1ccc(Cl)cc1)c1ccc(Cl)cc1
Result Type: GI50
Test Value: > 100 µM (inactive)
//
Compound: C[C@H](C(=O)N1C(=O)O[C@@H](c2ccccc2)[C@H]1C)[C@H](c1ccccc1)N(Cc1ccccc1)OC(=O)c1ccccc1
Result Type: GI50
Test Value: 22.1 µM (inactive)
//
Compound: CN1CCCCC(C#N)(c2ccccc2)CC1 (configuration not stated)
Result Type: GI50
Test Value: > 100 µM (inactive)
//
Compound: O=C(CN1c2ccccc2Sc2ccccc21)N1CCNCC1
Result Type: GI50
Test Value: 64.7 µM (inactive)
//
Compound: COc1ccccc1[C@@H]1CCC2CC[C@@H](c3ccccc3OC)[N+]21Cc1ccccc1 (some centres not stated)
Result Type: GI50
Test Value: 1.83 µM (inactive)
//
Compound: CC[S+](C)c1ccc(-c2c3nc(c(-c4ccc([S+](C)CC)cc4)c4ccc([nH]4)c(-c4ccc([S+](C)CC)cc4)c4nc(c(-c5ccc([S+](C)CC)cc5)c5ccc2[nH]5)C=C4)C=C3)cc1.[O-][Cl+3]([O-])([O-])[O-].[O-][Cl+3]([O-])([O-])[O-].[O-][Cl+3]([O-])([O-])[O-].[O-][Cl+3]([O-])([O-])[O-] (configuration not stated)
Result Type: GI50
Test Value: 20 µM (inactive)
//
Compound: COc1ccccc1C1(c2c(OC(C)C)c(=O)c2=O)SCCCS1
Result Type: GI50
Test Value: > 100 µM (inactive)
//
Compound: CCc1cccc(C)c1NC(=O)CC1C(=O)Nc2ccccc2[S+]1[O-] (configuration not stated)
Result Type: GI50
Test Value: 37.1 µM (inactive)
//
Compound: Cc1noc2cccc(OCc3ccccc3)c12
Result Type: GI50
Test Value: 39.5 µM (inactive)
//
Compound: CCN(CC)C(=O)CC12CCCCC1=Nc1ccccc12 (configuration not stated)
Result Type: GI50
Test Value: > 100 µM (inactive)
//
Compound: CCCCCCCCCCCCCC(=O)OC1C(CO)OC(=O)C1O (configuration not stated)
Result Type: GI50
Test Value: > 100 µM (inactive)
//
Compound: O=[N+]([O-])c1ccc(Oc2c(Cl)cc(S(=O)(=O)N/C(=N\O)Nc3ccc(Cl)cc3)cc2Cl)c(Cl)c1
Result Type: GI50
Test Value: 10.8 µM (inactive)
//
Compound: COC(=O)[C@H](CNC(=O)/C=C/c1ccc(OC(C)=O)c(OC(C)=O)c1)NC(=O)/C=C/c1ccc(OC(C)=O)c(OC(C)=O)c1
Result Type: GI50
Test Value: > 100 µM (inactive)
